- assay.system: E. coli ligase (D-Ala-D-Ala ligase) (Escherichia coli, UniProt P07862)
- experimental.protocol: D-Ala-D-Ala ligase Ki determination (PK/LDH coupled assay), E. coli ligase
- Assay type: biochemical
- measurement.context: E. coli ligase Ki/ATP (uM) avg, Table 3; Ki/ATP, avg
- From the text: Inhibition of D-Ala-D-Ala ligase can be assayed for using the pyruvate kinase/lactate dehydrogenase (PK/LDH) assay described in Example 2, and as described in the literature (e.g., in Sarthy et al., Anal. Biochem., 254:288-290, 1997). […] The protein sequence for the enzyme D-ala-D-ala ligase has been determined in a variety of different bacterial species using standard techniques in biochemistry (see Table 5). […]
observable: Ki (µM)
Note: unit µM is implicit; provide only the numeric part.

Simply: `CCOc1ccc2ccccc2c1CN(CCC(=O)N1CCOCC1)c1ncc2c(N)nc(N)nc2n1` , E. coli ligase (D-Ala-D-Ala ligase) (Escherichia coli, UniProt P07862), Ki = 1.9

Query `CCOc1ccc2ccccc2c1CN(CCC(=O)NCC(=N)N)c1ncc2c(N)nc(N)nc2n1` on E. coli ligase (D-Ala-D-Ala ligase) (Escherichia coli, UniProt P07862); Ki returned: 1

Param item: `CCOc1ccc2ccccc2c1CN(CCC(=O)NCCN)c1ncc2c(N)nc(N)nc2n1` ; param system: E. coli ligase (D-Ala-D-Ala ligase) (Escherichia coli, UniProt P07862); output Ki: 0.7

Recorded Ki for `CCOc1ccc2ccccc2c1CN(CCC(=O)NCc1ccccn1)c1ncc2c(N)nc(N)nc2n1` on E. coli ligase (D-Ala-D-Ala ligase) (Escherichia coli, UniProt P07862) was 9.6

The value of Ki recorded for `CCOc1ccc2ccccc2c1CN(CCC(=O)NCc1ccc(N)cc1)c1ncc2c(N)nc(N)nc2n1` when tested on E. coli ligase (D-Ala-D-Ala ligase) (Escherichia coli, UniProt P07862) reads 8.7

The recorded Ki with E. coli ligase (D-Ala-D-Ala ligase) (Escherichia coli, UniProt P07862) for `CCOc1ccc2ccccc2c1CN(CCC(=O)NCc1cccc(CN)c1)c1ncc2c(N)nc(N)nc2n1` was 5.3

====

- assay.system: Staph ligase (D-Ala-D-Ala ligase) (Staphylococcus aureus, UniProt Q5HEB7)
- Sequence (Q5HEB7 whole entry): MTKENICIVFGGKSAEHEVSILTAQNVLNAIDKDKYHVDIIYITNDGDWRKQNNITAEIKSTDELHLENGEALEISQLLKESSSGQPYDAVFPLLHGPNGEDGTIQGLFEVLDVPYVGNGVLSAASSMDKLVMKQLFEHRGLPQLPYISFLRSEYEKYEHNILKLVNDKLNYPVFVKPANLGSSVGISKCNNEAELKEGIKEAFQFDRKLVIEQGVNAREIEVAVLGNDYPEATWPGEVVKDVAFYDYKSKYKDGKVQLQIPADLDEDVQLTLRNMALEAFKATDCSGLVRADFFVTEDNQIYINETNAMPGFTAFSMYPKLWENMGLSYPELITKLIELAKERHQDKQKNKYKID
- experimental.protocol: D-Ala-D-Ala ligase Ki determination (PK/LDH coupled assay), Staph ligase
- Type: biochemical
- measurement.context: Table 2; read-out: Staph ligase
- Excerpt: Inhibition of D-Ala-D-Ala ligase can be assayed for using the pyruvate kinase/lactate dehydrogenase (PK/LDH) assay described in Example 2, and as described in the literature (e.g., in Sarthy et al., Anal. Biochem., 254:288-290, 1997). […] The protein sequence for the enzyme D-ala-D-ala ligase has been determined in a variety of different bacterial species using standard techniques in biochemistry (see Table 5). […]
observable: Ki (µM)
Answer format: numeric, µM implied, no suffix.

Consider CC(c1ccc(Cl)c2ccccc12)N(C)c1ncc2c(N)nc(N)nc2n1 (centres unmarked) [—CH3|CH3|R/S|Cl] . Its measured Ki is 4.9

// Ki value for CCN(c1ncc2c(N)nc(N)nc2n1)C(C)c1ccc(C)c2ccccc12 (centres unmarked) [—CH2CH3|CH3|R/S|CH3] : 38.5

compound Cc1ccc(C(C)N(C)c2ncc3c(N)nc(N)nc3n2)c2ccccc12 (centres unmarked) [—CH3|CH3|R/S|CH3] , Ki observed: 12.3

According to the records, this compound CCN(c1ncc2c(N)nc(N)nc2n1)[C@H](C)c1ccc(C)c2ccccc12 [—CH2CH3|CH3|R|CH3] displays Ki of 71

Entry under test: CCC(c1cccc2ccccc12)N(C)c1ncc2c(N)nc(N)nc2n1 (centres unmarked) [—CH3|C2H5|R/S|H] . Its Ki was 4.6

The compound CC(c1cccc2ccccc12)N(C)c1ncc2c(N)nc(N)nc2n1 (centres unmarked) [—CH3|CH3|R/S|H] showed Ki equal to 9.28

Looking up C[C@H](c1ccc(F)c2ccccc12)N(C)c1ncc2c(N)nc(N)nc2n1 [CH3|CH3|R|F] , I found its Ki recorded as 27

For this compound ( Cc1ccc([C@@H](C)N(CC2CC2)c2ncc3c(N)nc(N)nc3n2)c2ccccc12 [—CH2CH(CH2)2|CH3|R|CH3] ), measured Ki is 62
